# target-desc: DNA topoisomerase 2-alpha (Homo sapiens) (UniProt P11388)
# Sequence (P11388 whole entry): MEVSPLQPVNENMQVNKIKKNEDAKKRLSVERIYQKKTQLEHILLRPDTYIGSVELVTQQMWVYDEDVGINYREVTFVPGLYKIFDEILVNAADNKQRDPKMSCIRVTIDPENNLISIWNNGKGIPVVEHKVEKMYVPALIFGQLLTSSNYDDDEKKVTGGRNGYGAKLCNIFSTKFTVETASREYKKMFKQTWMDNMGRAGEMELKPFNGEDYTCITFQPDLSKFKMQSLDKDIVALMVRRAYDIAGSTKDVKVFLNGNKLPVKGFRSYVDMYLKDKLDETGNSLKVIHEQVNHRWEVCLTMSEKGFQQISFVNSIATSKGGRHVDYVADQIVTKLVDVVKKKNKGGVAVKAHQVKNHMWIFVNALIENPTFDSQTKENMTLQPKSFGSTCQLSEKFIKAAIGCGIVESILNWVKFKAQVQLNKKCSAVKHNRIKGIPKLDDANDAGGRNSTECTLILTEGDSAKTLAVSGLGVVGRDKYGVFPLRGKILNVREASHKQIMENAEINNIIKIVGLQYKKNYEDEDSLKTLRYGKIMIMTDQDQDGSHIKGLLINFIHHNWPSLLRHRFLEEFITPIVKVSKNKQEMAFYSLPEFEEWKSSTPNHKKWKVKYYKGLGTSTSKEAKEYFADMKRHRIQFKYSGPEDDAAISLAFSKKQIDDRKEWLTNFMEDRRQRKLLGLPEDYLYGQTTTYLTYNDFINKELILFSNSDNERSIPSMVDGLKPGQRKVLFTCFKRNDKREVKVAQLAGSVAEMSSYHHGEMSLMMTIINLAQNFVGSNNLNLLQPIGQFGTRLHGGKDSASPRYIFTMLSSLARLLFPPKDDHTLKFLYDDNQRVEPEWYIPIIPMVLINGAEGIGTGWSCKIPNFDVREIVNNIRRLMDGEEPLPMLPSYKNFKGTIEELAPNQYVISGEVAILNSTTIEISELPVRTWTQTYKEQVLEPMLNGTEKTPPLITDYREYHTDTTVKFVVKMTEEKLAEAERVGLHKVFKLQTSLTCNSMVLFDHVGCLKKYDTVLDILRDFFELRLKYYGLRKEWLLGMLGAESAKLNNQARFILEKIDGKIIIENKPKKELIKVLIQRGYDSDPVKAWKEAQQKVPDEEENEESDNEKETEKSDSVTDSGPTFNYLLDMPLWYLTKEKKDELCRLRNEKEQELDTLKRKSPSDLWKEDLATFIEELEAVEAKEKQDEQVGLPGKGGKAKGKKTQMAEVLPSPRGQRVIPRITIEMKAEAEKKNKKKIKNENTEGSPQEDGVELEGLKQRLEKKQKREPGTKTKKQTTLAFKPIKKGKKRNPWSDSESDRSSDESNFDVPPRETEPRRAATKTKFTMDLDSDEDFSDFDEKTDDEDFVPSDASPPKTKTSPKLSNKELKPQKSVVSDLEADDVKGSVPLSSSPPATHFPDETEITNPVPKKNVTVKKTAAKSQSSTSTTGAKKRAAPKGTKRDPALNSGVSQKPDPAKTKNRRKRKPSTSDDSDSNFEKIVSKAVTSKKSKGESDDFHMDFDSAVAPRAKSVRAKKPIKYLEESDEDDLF
# protocol-details: Poison activity at recombinant human topoisomerase-2alpha expressed in Saccharomyces cerevisiae JEL1 harboring topoisomerase1 deletion mutant assessed as increase in double stranded DNA cleavage at 1 mM using supercoiled pBR322 DNA as substrate in presence of reducing agent DTT measured after 6 mins by ethidium bromide staining based agarose gel electrophoresis
Calls of active or inactive are those of the source. The calls are words filed in the database; no cut-off is given here.
measurement-kind: Activity

Would you please look over these solved cases?
[[record]]
molecule = "Nc1c2c(nc3ccc(Br)cc13)CC(C(F)(F)F)CC2=O (stereo not given)"
target_desc = "DNA topoisomerase 2-alpha (Homo sapiens) (UniProt P11388)"
measurement_kind = "Activity"
result = "inactive"

[[record]]
molecule = "Nc1c2c(nc3ccc(Cl)cc13)CC(C(F)(F)F)CC2=O (stereo not given)"
target_desc = "DNA topoisomerase 2-alpha (Homo sapiens) (UniProt P11388)"
measurement_kind = "Activity"
result = "inactive"

[[record]]
molecule = "Nc1c2c(nc3ccccc13)CC(C(F)(F)F)CC2=O (stereo not given)"
target_desc = "DNA topoisomerase 2-alpha (Homo sapiens) (UniProt P11388)"
measurement_kind = "Activity"
result = "inactive"

[[record]]
molecule = "Nc1c2c(nc3ccc(F)cc13)CC(C(F)(F)F)CC2=O (stereo not given)"
target_desc = "DNA topoisomerase 2-alpha (Homo sapiens) (UniProt P11388)"
measurement_kind = "Activity"
result = "inactive"


Next item in the queue.
Data request: I'd like to know its Activity. The molecule in question is Cc1ccc2c(N)c3c(nc2c1)CC(C(F)(F)F)CC3=O (stereo not given)
Data returned: inactive
